GI50 reference
Tested on: EKVX
assay-comment: NCI tumour cell line growth inhibition, 48 h
The source made the active and inactive calls. Rule as the data show it: active = GI50 up to about 1.1 µM and inactive = higher.

- compound: "CCOC(=O)c1cn(CC)c2ccc3c(c2c1=O)S(=O)(=O)C=C3"
  study-target: "EKVX"
  GI50: "> 100 µM (inactive)"
- compound: "N#Cc1ccc(Oc2cccc(Oc3ccccc3)c2)cc1C#N"
  study-target: "EKVX"
  GI50: "37.5 µM (inactive)"
- compound: "O=c1c2ccccc2nc(-c2cccc(Cl)c2)n1NCC1(O)OCC(O)C(O)C1O (stereo unspecified)"
  study-target: "EKVX"
  GI50: "> 100 µM (inactive)"
- compound: "S=C(NC/C(Br)=C/Br)Nc1cccc2ccccc12"
  study-target: "EKVX"
  GI50: "28.9 µM (inactive)"
- compound: "CC(NC(=O)C(N)CC(=O)O)NC(=O)N1CCCC1 (stereo unspecified)"
  study-target: "EKVX"
  GI50: "> 100 µM (inactive)"
- compound: "C=C(CCC/C(C)=C/C=C/[C@@H](C)CCCc1ccoc1)C[C@@H]1OC(=O)[C@H](C)[C@@H]1O"
  study-target: "EKVX"
  GI50: "9.2 µM (inactive)"

====

Test system: PC-3
assay-comment: NCI tumour cell line growth inhibition, 48 h
Activity calls are given as the source filed them. Rule as the data show it: active = GI50 up to about 1.1 µM and inactive = higher.
GI50 reference
measurement-kind: GI50

- compound: "O=C1OC(OC/C(Br)=C(/Br)COC2OC(=O)C(Cl)=C2Cl)C(Cl)=C1Cl (stereo unspecified)"
  measurement-kind: "GI50"
  val: "15.8 µM (inactive)"
- compound: "S=C(NC/C(Br)=C/Br)Nc1cccc2ccccc12"
  measurement-kind: "GI50"
  val: "23.1 µM (inactive)"
- compound: "CCCCCCc1cc2cc(-c3csc(CC#N)n3)c(=O)oc2cc1O"
  measurement-kind: "GI50"
  val: "> 100 µM (inactive)"
- compound: "COc1cc2c(OC)c3cc(C)oc(=O)c3c(O)c2c(O)c1-c1c(OC)cc2c(OC)c3cc(C)oc(=O)c3c(O)c2c1O"
  measurement-kind: "GI50"
  val: "14 µM (inactive)"
- compound: "O=C(NNCc1ccccc1O)c1ccccc1O"
  measurement-kind: "GI50"
  val: "24.9 µM (inactive)"
- compound: "Cn1c2ccccc2c(=O)c2c(O)cc3c(c21)C=CC1(CCCCC1)O3"
  measurement-kind: "GI50"
  val: "> 10 µM (inactive)"

====

System: SN12C
assay-comment: NCI tumour cell line growth inhibition, 48 h
Activity calls are given as the source filed them. Rule as the data show it: active = GI50 up to about 1.1 µM and inactive = higher.
measurement-kind: GI50

- compound: "CC#CCCCC1(C)CCCNC1=S (stereo unspecified)"
  measurement-kind: "GI50"
  val: "> 10 µM (inactive)"
- compound: "O=C1C=C(OCCCl)C(=O)c2c(O)ccc(O)c21"
  measurement-kind: "GI50"
  val: "0.225 µM (active)"
- compound: "COc1cc([C@@H]2c3cc4c(cc3[C@@H](NC(=O)c3ccc(OC(C)=O)cc3)C3COC(=O)[C@@H]32)OCO4)cc(OC)c1O (stereo partly specified)"
  measurement-kind: "GI50"
  val: "1 µM (active)"
- compound: "CSC1=Nc2ccccc2-c2nc(-c3ccccc3)cc(-c3ccccc3)c2C1"
  measurement-kind: "GI50"
  val: "28.2 µM (inactive)"
- compound: "COc1cc(S(=O)(=O)Nc2nc(-c3ccc(N4C(=O)/C(=C/c5ccccc5[N+](=O)[O-])N=C4c4ccccc4)cc3)cs2)ccc1Cl"
  measurement-kind: "GI50"
  val: "> 100 µM (inactive)"
- compound: "CCOC(=O)c1[nH]c(Br)c(-c2ccc(Br)cc2)c1Br"
  measurement-kind: "GI50"
  val: "0.45 µM (active)"
- compound: "O=[N+]([O-])C(=C1Nc2ccccc2N1)C(Cl)=C(Cl)Cl"
  measurement-kind: "GI50"
  val: "> 100 µM (inactive)"
- compound: "COc1cc(CC(C)=O)cc(OC)c1"
  measurement-kind: "GI50"
  val: "46.8 µM (inactive)"
- compound: "c1ccc2c(CNCCCCCCCCCCCCNCc3cccc4ccccc34)cccc2c1"
  measurement-kind: "GI50"
  val: "3.53 µM (inactive)"
- compound: "CC1(C)CC(c2c[nH]c3ccccc23)=CC2=Nc3ccccc3C21O (stereo unspecified)"
  measurement-kind: "GI50"
  val: "> 100 µM (inactive)"
- compound: "COc1cc(C)c(CC/C(C)=C/Cc2cc(O)ccc2O)c(C)c1C [PANICEIN A HYDROQUINONE]"
  measurement-kind: "GI50"
  val: "> 25 µM (inactive)"
- compound: "O=C1OC(=O)C23CSCC12C1C=CC3O1 (stereo unspecified)"
  measurement-kind: "GI50"
  val: "> 100 µM (inactive)"
- compound: "Cc1ccc(-c2[nH]c(=O)n(C3OC(CO)C(O)C(O)C3O)c(=O)c2C#N)cc1 (stereo unspecified)"
  measurement-kind: "GI50"
  val: "> 100 µM (inactive)"
- compound: "Clc1ccccc1C1N2CCCCC2[C@@H]2c3[nH]c4ccccc4c3CCN12 (stereo partly specified)"
  measurement-kind: "GI50"
  val: "16.7 µM (inactive)"
- compound: "O=c1oc2ccccc2c(Nc2ccc3c(c2)Sc2ccccc2O3)c1[N+](=O)[O-]"
  measurement-kind: "GI50"
  val: "28.9 µM (inactive)"
- compound: "CC[C@@]1(O)C(=O)OCc2c1cc1n(c2=O)Cc2c-1nc1ccccc1c2/C=N\\NC(=O)C(C)N (stereo partly specified)"
  measurement-kind: "GI50"
  val: "< 0.01 µM (active)"
- compound: "O=C1OC(c2ccccc2)=N/C1=C/NC(Cc1ccccc1)C(=O)O (stereo unspecified)"
  measurement-kind: "GI50"
  val: "> 100 µM (inactive)"
- compound: "COC(=O)c1cc(NC(=O)Cn2c3ccccc3c3ccccc32)cn1C"
  measurement-kind: "GI50"
  val: "55.3 µM (inactive)"
- compound: "Nc1ncnc2c1ncn2C1C(O)C=C(CO)C1O (stereo unspecified)"
  measurement-kind: "GI50"
  val: "> 625 µM (inactive)"
- compound: "CCOC(=O)C[C@@]12CCCNC1(C)CCc1ccccc12 (stereo partly specified)"
  measurement-kind: "GI50"
  val: "> 100 µM (inactive)"
- compound: "CC(C)C1=C(O)C(=O)C2=C(C1=O)C(OC=O)C(O)C1C(C)(C)CCCC21C (stereo unspecified)"
  measurement-kind: "GI50"
  val: "10.1 µM (inactive)"
